- protocol text: Inhibition of biotinylated human IL-17A/AF647-labeled human IL-17RA protein-protein interaction preincubated for 30 mins with compound followed by addition of AF647-labeled human IL-17RA incubated for 90 min by TR-FRET assay
Measured IC50, listed per entry for reference.
Enter your answer as a number in nM; do not include the unit.

[[record]]
structure_smiles_string = "COC[C@H](c1cnn2cc([C@@H](Nc3cc(OC)ncn3)C3CCC(F)(F)CC3)nc2c1)N1C[C@@H](C(F)(F)F)NC1=O"
data_value = 735

[[record]]
structure_smiles_string = "COC[C@H](c1cnn2cc([C@@H](Nc3ncc(C4CC4)o3)C3CCC(F)(F)CC3)nc2c1)N1C[C@@H](C(F)(F)F)NC1=O"
data_value = 80


Q: Identify the reported IC50 for the following entry. "COC[C@H](c1cnn2cc([C@@H](Nc3nc(C(C)(F)F)no3)C3CCC(F)(F)CC3)nc2c1)N1C[C@@H](C(F)(F)F)NC1=O"
Result: 116

###

- protocol text: Inhibition of IL-6 production in IL-17/TNF-alpha stimulated human NHDF cells incubated for 24 hrs by ELISA
- Assay type: functional, cell-based
- experimental context: 24 h
pIC50: −log10 of the molar value.
Parameter threshold = 7. Response is y when pIC50 meets or exceeds it, else n.

[[record]]
structure_smiles_string = "COC[C@H](c1cnn2cc([C@@H](Nc3cc(OC)ncn3)C3CCC(F)(F)CC3)nc2c1)N1C[C@@H](C(F)(F)F)NC1=O"
category_label = "n"

[[record]]
structure_smiles_string = "C/C=C(\\F)C(=O)N[C@H](c1cn2ncc([C@@H](COC)N3C[C@@H](C(F)(F)F)NC3=O)cc2n1)C1CCC(F)(F)CC1"
category_label = "y"

[[record]]
structure_smiles_string = "COC[C@H](c1cnn2cc([C@@H](Nc3nnc(C)n3C)C3CCC(F)(F)CC3)nc2c1)N1C[C@@H](C(F)(F)F)NC1=O"
category_label = "n"

[[record]]
structure_smiles_string = "COC[C@H](c1cnn2cc([C@@H](Nc3noc(C(C)(F)F)n3)C3CCC(F)(F)CC3)nc2c1)N1C[C@@H](C(F)(F)F)NC1=O"
category_label = "y"

[[record]]
structure_smiles_string = "COC[C@H](c1cnn2cc([C@@H](NC(=O)C(F)=C(C)C)C3CCC(F)(F)CC3)nc2c1)N1C[C@@H](C(F)(F)F)NC1=O"
category_label = "y"


Q: API: above_or_equal(metric=pIC50, cutoff=7) for item "COC[C@H](c1cnn2cc([C@@H](NC(=O)/C(F)=C3\CCOC3)C3CCC(F)(F)CC3)nc2c1)N1C[C@@H](C(F)(F)F)NC1=O"
Result: y

###

- protocol text: Inhibition of IL-6 production in IL-17/TNF-alpha stimulated human NHDF cells incubated for 24 hrs by ELISA
- Type: functional, cell-based
- experimental context: 24 h
Measured pIC50, listed per entry for reference.
Expect pIC50 as a plain number equal to -log10 of the molar concentration.

Below are worked cases with known answers.
[[record]]
structure_smiles_string = "CC(F)(F)c1nnc(N[C@H](c2cn3ncc([C@@H](C4CC4)N4C[C@@H](C(F)(F)F)NC4=O)cc3n2)C2CCC(F)(F)CC2)o1"
observed_property = "pIC50"
data_value = 8.22

[[record]]
structure_smiles_string = "COC[C@H](c1cnn2cc([C@@H](Nc3nc(C(C)(F)F)no3)C3CCC(F)(F)CC3)nc2c1)N1C[C@@H](C(F)(F)F)NC1=O"
observed_property = "pIC50"
data_value = 6.97

[[record]]
structure_smiles_string = "COC[C@H](c1cnn2cc([C@@H](Nc3cc(C)on3)C3CCC(F)(F)CC3)nc2c1)N1C[C@@H](C(F)(F)F)NC1=O"
observed_property = "pIC50"
data_value = 7.12

[[record]]
structure_smiles_string = "COC[C@H](c1cnn2cc([C@@H](NC(=O)c3nonc3C)C3CCC(F)(F)CC3)nc2c1)N1C[C@@H](C(F)(F)F)NC1=O"
observed_property = "pIC50"
data_value = 8.40

[[record]]
structure_smiles_string = "COC[C@H](c1cnn2cc([C@@H](Nc3nnc(C)o3)C3CCC(F)(F)CC3)nc2c1)N1C[C@@H](C(F)(F)F)NC1=O"
observed_property = "pIC50"
data_value = 7.31


Below: the item to evaluate.
Q: Identify the reported pIC50 for the following entry. "C=C(F)C(=O)N[C@H](c1cn2ncc([C@@H](COC)N3C[C@@H](C(F)(F)F)NC3=O)cc2n1)C1CCC(F)(F)CC1"
Result: 7.57

###

- protocol text: Inhibition of IL-6 production in IL-17/TNF-alpha stimulated human NHDF cells incubated for 24 hrs by ELISA
- Type: functional, cell-based
- experimental context: 24 h
Measured pIC50, listed per entry for reference.
Expect pIC50 as a plain number equal to -log10 of the molar concentration.

Q: Identify the reported pIC50 for the following entry. "COC[C@H](c1cnn2cc([C@@H](NC(=O)/C(F)=C\C3(F)CC3)C3CCC(F)(F)CC3)nc2c1)N1C[C@@H](C(F)(F)F)NC1=O"
Result: 8.40

Q: Identify the reported pIC50 for the following entry. "C/C=C(/F)C(=O)N[C@H](c1cn2ncc([C@@H](COC)N3C[C@@H](C(F)(F)F)NC3=O)cc2n1)C1CCC(F)(F)CC1"
Result: 8.40

Q: Identify the reported pIC50 for the following entry. "COC[C@H](c1cnn2cc([C@@H](NC(=O)/C(F)=C\C3CC3)C3CCC(F)(F)CC3)nc2c1)N1C[C@@H](C(F)(F)F)NC1=O"
Result: 8.40

Q: Identify the reported pIC50 for the following entry. "COC[C@H](c1cnn2cc([C@@H](Nc3nnc(C(F)(F)F)o3)C3CCC(F)(F)CC3)nc2c1)N1C[C@@H](C(F)(F)F)NC1=O"
Result: 7.82

###

- protocol text: Plasma clearance in Sprague-Dawley rat at 1 mg/kg,iv measured upto 24 hrs by LC-MS/MS analysis
- Format: ADME, organism-based
Measured clearance, listed per entry for reference.
The reply should read as a number followed by its unit.

Below are worked cases with known answers.
[[record]]
structure_smiles_string = "CC(F)(F)c1nnc(N[C@H](c2cn3ncc([C@@H](C4CC4)N4C[C@@H](C(F)(F)F)NC4=O)cc3n2)C2CCC(F)(F)CC2)o1"
observed_property = "clearance"
data_value = "56 mL/min/kg"

[[record]]
structure_smiles_string = "COC[C@H](c1cnn2cc([C@@H](NC(=O)/C(F)=C3\\CCOC3)C3CCC(F)(F)CC3)nc2c1)N1C[C@@H](C(F)(F)F)NC1=O"
observed_property = "clearance"
data_value = "42 mL/min/kg"


Q: Identify the reported clearance for the following entry. "COC[C@H](c1cnn2cc([C@@H](NC(=O)c3nonc3C)C3CCC(F)(F)CC3)nc2c1)N1C[C@@H](C(F)(F)F)NC1=O"
Result: 24 mL/min/kg

Q: Identify the reported clearance for the following entry. "COC[C@H](c1cnn2cc([C@@H](Nc3nnc(C4CC4)o3)C3CCC(F)(F)CC3)nc2c1)N1C[C@@H](C(F)(F)F)NC1=O"
Result: 86 mL/min/kg

###

- protocol text: Half life in C57BL/6 mouse at 1 mg/kg,iv or 3 mg/kg,po measured upto 24 hrs by LC-MS/MS analysis
- Format: ADME, organism-based
- experimental context: in vivo
observed property: half-life
The reply should read as a number followed by its unit.

Q: Identify the reported half-life for the following entry. "COC[C@H](c1cnn2cc([C@@H](NC(=O)/C(F)=C\C3CC3)C3CCC(F)(F)CC3)nc2c1)N1C[C@@H](C(F)(F)F)NC1=O"
Result: 2 h

###

Measured log10 of microsomal CLint, listed per entry for reference.
- protocol text: Metabolic stability in rat liver microsomes assessed as intrinsic clearance
- Type: ADME, Microsome
- experimental context: read-out: CLH
Parameter value (number): base-10 log of microsomal CLint in µL/min/mg.

Below are worked cases with known answers.
[[record]]
molecule = "COC[C@H](c1cnn2cc([C@@H](NC(=O)/C(F)=C\\C3CC3)C3CCC(F)(F)CC3)nc2c1)N1C[C@@H](C(F)(F)F)NC1=O"
observed_property = "log10 of microsomal CLint"
data_value = 1.58

[[record]]
molecule = "COC[C@H](c1cnn2cc([C@@H](Nc3nnc(C(C)(F)F)o3)C3CCC(F)(F)CC3)nc2c1)N1C[C@@H](C(F)(F)F)NC1=O"
observed_property = "log10 of microsomal CLint"
data_value = 1.26

[[record]]
molecule = "C=C(F)C(=O)N[C@H](c1cn2ncc([C@@H](COC)N3C[C@@H](C(F)(F)F)NC3=O)cc2n1)C1CCC(F)(F)CC1"
observed_property = "log10 of microsomal CLint"
data_value = 1.52

[[record]]
molecule = "COC[C@H](c1cnn2cc([C@@H](NC(=O)c3nonc3C)C3CCC(F)(F)CC3)nc2c1)N1C[C@@H](C(F)(F)F)NC1=O [LY-3509754]"
observed_property = "log10 of microsomal CLint"
data_value = 1.30

[[record]]
molecule = "COC[C@H](c1cnn2cc([C@@H](Nc3nc(C(C)(F)F)no3)C3CCC(F)(F)CC3)nc2c1)N1C[C@@H](C(F)(F)F)NC1=O"
observed_property = "log10 of microsomal CLint"
data_value = 1.26

[[record]]
molecule = "COC[C@H](c1cnn2cc([C@@H](Nc3nnc(C4CC4)o3)C3CCC(F)(F)CC3)nc2c1)N1C[C@@H](C(F)(F)F)NC1=O"
observed_property = "log10 of microsomal CLint"
data_value = 1.23


Q: Identify the reported log10 of microsomal CLint for the following entry. "COC[C@H](c1cnn2cc([C@@H](Nc3nnc(C)s3)C3CCC(F)(F)CC3)nc2c1)N1C[C@@H](C(F)(F)F)NC1=O"
Result: 1.88

Q: Identify the reported log10 of microsomal CLint for the following entry. "COC[C@H](c1cnn2cc([C@@H](Nc3cc(OC)ncn3)C3CCC(F)(F)CC3)nc2c1)N1C[C@@H](C(F)(F)F)NC1=O"
Result: 1.89

Q: Identify the reported log10 of microsomal CLint for the following entry. "COC[C@H](c1cnn2cc([C@@H](NC(=O)/C(F)=C\C3(F)CC3)C3CCC(F)(F)CC3)nc2c1)N1C[C@@H](C(F)(F)F)NC1=O"
Result: 1.81

Q: Identify the reported log10 of microsomal CLint for the following entry. "COC[C@H](c1cnn2cc([C@@H](Nc3nnc(C)n3C)C3CCC(F)(F)CC3)nc2c1)N1C[C@@H](C(F)(F)F)NC1=O"
Result: 1.11

Q: Identify the reported log10 of microsomal CLint for the following entry. "C/C=C(\F)C(=O)N[C@H](c1cn2ncc([C@@H](COC)N3C[C@@H](C(F)(F)F)NC3=O)cc2n1)C1CCC(F)(F)CC1"
Result: 2.22
